Consider the following compounds; for each one, report its IC50.
- system under test: NTCP (Homo sapiens, UniProt Q14973)
- Sequence (Q14973 1-349): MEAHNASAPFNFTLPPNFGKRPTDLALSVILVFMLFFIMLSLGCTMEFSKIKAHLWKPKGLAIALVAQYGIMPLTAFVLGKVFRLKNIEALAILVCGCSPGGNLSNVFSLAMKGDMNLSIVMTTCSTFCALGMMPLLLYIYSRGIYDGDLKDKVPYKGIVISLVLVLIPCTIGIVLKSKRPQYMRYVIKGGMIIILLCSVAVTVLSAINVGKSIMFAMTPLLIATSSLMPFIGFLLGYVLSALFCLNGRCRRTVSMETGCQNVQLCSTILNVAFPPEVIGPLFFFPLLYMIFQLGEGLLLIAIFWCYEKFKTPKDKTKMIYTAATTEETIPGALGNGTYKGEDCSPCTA
- measurement protocol: [3H]-TCA uptake assay (NTCP inhibition)
- Type: cell-based
- experimental parameters: given as a range; assay not given

CCC1NC(=O)C(C2OC(OCc3ccccc3OC)CC2C)N(C)C(=O)C(C(C)C)N(C)C(=O)C(CC(C)C)N(C)C(=O)C(CC(C)C)N(C)C(=O)C(C)NC(=O)C(C)NC(=O)C(CC(C)C)N(C)C(=O)C(C(C)C)NC(=O)C(CC(C)C)N(C)C(=O)CN(C)C1=O (single isomer, unassigned) [Compound 82B]; 1 to 1000 nM

Below: the item to evaluate.
The measured IC50 associated with CCC1NC(=O)C(C2OC(Sc3cccc(OCc4ccc(F)cc4)c3)CC2C)N(C)C(=O)C(C(C)C)N(C)C(=O)C(CC(C)C)N(C)C(=O)C(CC(C)C)N(C)C(=O)C(C)NC(=O)C(C)NC(=O)C(CC(C)C)N(C)C(=O)C(C(C)C)NC(=O)C(CC(C)C)N(C)C(=O)CN(C)C1=O (centres unmarked) [Compound 21A] reads 1 to 1000 nM
